- assayed.target: Urokinase from human urine (Homo sapiens, UniProt P00749)
- experiment.description: Enzymatic assay, urokinase
Where a SMILES comes first, the peptide text is derived from it.
Could you label it yes (1) if measured Urokinase at 100 μM % is 6% or higher, and no (0) otherwise?

C[C@@H](O)[C@@H]1NC(=O)[C@@H]2CSSC[C@H](NC(=O)[C@H](Cc3ccc(O)cc3)NC(=O)[C@@H]3CCCN3C(=O)[C@@H]3CCCN3C(=O)[C@H](CC(=O)O)NC(=O)[C@H](CO)NC(=O)[C@H](CCCCN)NC1=O)C(=O)N[C@@H](Cc1ccc(O)cc1)C(=O)N1CCC[C@@H]1C(=O)N1CCC[C@H]1C(=O)N[C@@H](C1CCCCC1)C(=O)N2 [Ex. 65] (HELM PEPTIDE1{[O=C([C@@H](N[*:1])C1CCCCC1)[*:2]].C.T.K.S.D.P.P.Y.C.Y.[dP].P}$PEPTIDE1,PEPTIDE1,2:R3-10:R3|PEPTIDE1,PEPTIDE1,1:R1-13:R2$$$V2.0); no (0)
CCCC[C@@H]1NC(=O)[C@@H]2CCCN2C(=O)[C@H]2CCCN2C(=O)[C@H](Cc2ccc(O)cc2)NC(=O)[C@@H]2CSSC[C@H](NC1=O)C(=O)N[C@@H]([C@@H](C)O)C(=O)N[C@@H](C)C(=O)N[C@@H](CO)C(=O)N[C@@H]([C@@H](C)CC)C(=O)N1CCC[C@H]1C(=O)N1CC(NC(=O)c3ccccc3)C[C@H]1C(=O)N[C@@H](CCC(N)=O)C(=O)N2 (single isomer, unassigned) [Ex. 138]; yes (1)
CCCCCCCC[C@@H]1NC(=O)[C@@H]2CCCN2C(=O)[C@H]2CCCN2C(=O)[C@H](Cc2ccc(O)cc2)NC(=O)[C@H]([C@@H](C)O)NC(=O)[C@H](CCC(N)=O)NC(=O)[C@@H]2CCCN2C(=O)[C@@H]2CCCN2C(=O)[C@H]([C@@H](C)CC)NC(=O)[C@H](CO)NC(=O)[C@H](C)NC(=O)[C@H]([C@@H](C)O)NC(=O)[C@H](CCC(N)=O)NC1=O [Ex. 154] (HELM PEPTIDE1{[CCCCCCCC[C@H](N[*:1])C(=O)[*:2]].Q.T.A.S.I.P.P.Q.T.Y.[dP].P}$PEPTIDE1,PEPTIDE1,1:R1-13:R2$$$V2.0); no (0)
C[C@@H]1NC(=O)[C@H]([C@@H](C)O)NC(=O)[C@@H]2CSSC[C@H](NC(=O)[C@H](CCC(N)=O)NC(=O)[C@@H]3CCCN3C(=O)[C@@H]3CCCN3C(=O)[C@H](CC3CCCCC3)NC(=O)[C@H](CO)NC1=O)C(=O)N[C@@H](CCC(N)=O)C(=O)N1CCC[C@@H]1C(=O)N1CCC[C@H]1C(=O)N[C@@H](CCc1ccccc1)C(=O)N2 [Ex. 158] (HELM PEPTIDE1{[O=C([C@H](CCc1ccccc1)N[*:1])[*:2]].C.T.A.S.[Cha].P.P.Q.C.Q.[dP].P}$PEPTIDE1,PEPTIDE1,2:R3-10:R3|PEPTIDE1,PEPTIDE1,1:R1-13:R2$$$V2.0); yes (1)
CC[C@H](C)[C@@H]1NC(=O)[C@@H]2CCCN2C(=O)[C@@H]2CCCN2C(=O)[C@H](CC(=O)O)NC(=O)[C@H](CO)NC(=O)[C@H](CCCCN)NC(=O)[C@H]([C@@H](C)O)NC(=O)[C@@H]2CSSC[C@H](NC1=O)C(=O)N[C@@H](CC(N)=O)C(=O)N1CCC[C@@H]1C(=O)N1CCC[C@H]1C(=O)N[C@@H](Cc1ccccc1)C(=O)N2 [Ex. 3] (HELM PEPTIDE1{F.C.T.K.S.D.P.P.I.C.N.[dP].P}$PEPTIDE1,PEPTIDE1,2:R3-10:R3|PEPTIDE1,PEPTIDE1,1:R1-13:R2$$$V2.0); no (0)
CC[C@H](C)[C@@H]1NC(=O)[C@@H]2CCCN2C(=O)[C@@H]2CCCN2C(=O)[C@H](CC(=O)O)NC(=O)[C@H](CO)NC(=O)[C@H](CCCCN)NC(=O)[C@H]([C@@H](C)O)NC(=O)[C@@H]2CSSC[C@H](NC1=O)C(=O)N[C@@H]([C@@H](C)O)C(=O)N1CCC[C@@H]1C(=O)N1CCC[C@H]1C(=O)N[C@@H](CCc1ccccc1)C(=O)N2 [Ex. 28] (HELM PEPTIDE1{[O=C([C@H](CCc1ccccc1)N[*:1])[*:2]].C.T.K.S.D.P.P.I.C.T.[dP].P}$PEPTIDE1,PEPTIDE1,2:R3-10:R3|PEPTIDE1,PEPTIDE1,1:R1-13:R2$$$V2.0); no (0)
CCCC[C@@H]1NC(=O)[C@@H]2CCCN2C(=O)[C@H]2CCCN2C(=O)[C@H](Cc2ccccc2Cl)NC(=O)[C@@H]2CSSC[C@H](NC1=O)C(=O)N[C@@H]([C@@H](C)O)C(=O)N[C@@H](C)C(=O)N[C@@H](CO)C(=O)N[C@@H]([C@@H](C)CC)C(=O)N1CCC[C@H]1C(=O)N1CCC[C@H]1C(=O)N[C@@H](CCC(N)=O)C(=O)N2 [Ex. 144] (HELM PEPTIDE1{[Nle].C.T.A.S.I.P.P.Q.C.[O=C([C@H](Cc1ccccc1Cl)N[*:1])[*:2]].[dP].P}$PEPTIDE1,PEPTIDE1,2:R3-10:R3|PEPTIDE1,PEPTIDE1,1:R1-13:R2$$$V2.0); yes (1)

Attention now turns to another entry.
Does the reported Urokinase at 100 μM % for CC[C@H](C)[C@@H]1NC(=O)[C@@H]2CCCN2C(=O)[C@@H]2CCCN2C(=O)[C@H](CC(=O)O)NC(=O)[C@H](CO)NC(=O)[C@H](CCCCN)NC(=O)[C@H]([C@@H](C)O)NC(=O)[C@@H]2CSSC[C@H](NC1=O)C(=O)N[C@@H](CC(N)=O)C(=O)N1CCC[C@@H]1C(=O)N1CCC[C@H]1C(=O)N[C@@H](C1CCCCC1)C(=O)N2 [Ex. 37] (HELM PEPTIDE1{[O=C([C@@H](N[*:1])C1CCCCC1)[*:2]].C.T.K.S.D.P.P.I.C.N.[dP].P}$PEPTIDE1,PEPTIDE1,2:R3-10:R3|PEPTIDE1,PEPTIDE1,1:R1-13:R2$$$V2.0) fall at or above the 6% mark? no (0)

The reported measurements were obtained from patent US8658604B2.
